Source of measurements: PubChem BioAssay (NCATS)

# Test Method Notes: qHTS assay for cell viability of HEK293 cells (AID 743288); note: % is set by controls: 0 for no effect and ±100 for the full control effect; nearly all actives have a fitted effect of over 50% in size
# Reported Conditions: ATP luminescence (CellTiter-Glo), 18 h; stronger effect = lower value
Inconclusive results are not listed.
Measurement Label: max response (%)

| Molecule | Value Units | Quantitative Readout |
| --- | --- | --- |
| c1ccc2cc3ccccc3cc2c1 | % | -2.63 |
| CC(=O)/C=C/C1C(C)=CCCC1(C)C (stereo unspecified) | % | -13.5 |
| C[Si]1(C)O[Si](C)(C)O[Si](C)(C)O1 | % | -1.41 |
| C1CCC2(CCCCO2)OC1 | % | 3.07 |
| COC(=O)c1ccc(I)cc1S(=O)(=O)NC(=O)Nc1nc(C)nc(OC)n1 | % | -13.7 |
| C[Si](C)(C)N[Si](C)(C)C | % | -5.89 |

---

# Test Method Notes: qHTS for Inhibitors of Plasmodium falciparum (DD2) proliferation (AID 504314)
# Reported Conditions: P. falciparum Dd2 in erythrocytes, SYBR Green growth, 72 h; series mostly up to 1.12 µM
Inconclusive results are not listed. The source made the active and inactive calls. Calls come from the whole dose curve; as a rule, active = well fitted inhibition curve with a large enough effect; inconclusive = small, poorly fitted or top-dose-only effect; inactive = flat fitted curve, though single readings scatter.
Outcomes: 1 = active, -1 = inactive

| Compound | Discrete Label |
| --- | --- |
| C=CCN1c2ccccc2[C@]23C[C@@H](C(=O)OC)N(C(=O)c4ccc(Br)cc4)C2=NC(C(=O)OC)=C(C(=O)OC)[C@H]13 | -1 |
| C=CCN1c2ccccc2[C@]23C[C@@H](C(=O)OC)N(S(=O)(=O)c4cccs4)C2=NC(C(=O)OC)=C(C(=O)OC)[C@H]13 | -1 |
| CC#CCN1c2ccccc2[C@]23C[C@@H](C(=O)OC)N(C(=O)c4cccs4)C2=NC(C(=O)OC)=C(C(=O)OC)[C@H]13 | -1 |
| C=CCN1c2ccccc2[C@]23C[C@@H](C(=O)OC)N(C(=O)C4CCC4)C2=NC(C(=O)OC)=C(C(=O)OC)[C@H]13 | -1 |
| COC(=O)C1=C(C(=O)OC)[C@@H]2N(C)c3ccc(OC)cc3[C@@]23C[C@@H](C(=O)OC)N(S(=O)(=O)c2ccc([N+](=O)[O-])cc2)C3=N1 | -1 |
| CC#CCN1c2ccccc2[C@]23C[C@@H](C(=O)OC)N(S(=O)(=O)c4ccc(C#N)cc4)C2=NC(C(=O)OC)=C(C(=O)OC)[C@H]13 | -1 |
| CCCC[C@]12Cc3cc(OC)c(OC)cc3[C@H](O1)C1=C(O2)C(=O)c2ccccc2C1=O | 1 |
| CC#CCN1c2ccccc2[C@]23C[C@@H](C(=O)OC)N(S(=O)(=O)c4c(C)noc4C)C2=NC(C(=O)OC)=C(C(=O)OC)[C@H]13 | -1 |
| COCC(=O)N1CCc2nc(COc3ccccc3)c3c(c2C1)CO[C@@H](C)C3 | -1 |
| C[C@H]1Cc2c(-c3ccccc3)nc3c(c2CO1)CN(C(=O)c1cc(I)ccc1F)CC3 | -1 |
| COC(=O)CCCC1=CC2=CC(=O)C(C)(OC(=O)CCc3ccccc3)C(=O)C2=CO1 (configuration not stated) | -1 |
| COCCN1C=C2C(=O)C(C)(OC(=O)CCC(=O)OC)C(=O)C=C2C=C1C1CC1 (configuration not stated) | -1 |
| COC(=O)C1=C(C(=O)OC)[C@@H]2Nc3ccccc3[C@@]23C[C@@H](C(=O)OC)N(S(=O)(=O)c2ccc(C#N)cc2)C3=N1 | -1 |
| Cc1cc2c(c(=O)n1-c1ccccc1)[C@H]1O[C@](c3ccsc3)(Cc3cc(C#N)ccc31)O2 | -1 |
| COC(=O)C1=C(C(=O)OC)[C@@H]2Nc3ccccc3[C@@]23C[C@@H](C(=O)OC)N(S(=O)(=O)c2cccs2)C3=N1 | -1 |
| CCCCC1=CC2=CC(=O)C(C)(OC(=O)CC)C(=O)C2=CN1c1ccc(OC)cc1 (configuration not stated) | -1 |
| CCN1C(=O)N[C@@H](c2cccc(C(F)(F)F)c2)C(C(=O)OC)=C1C | -1 |
| CC1(OC(=O)CCc2ccccc2)C(=O)C=C2C=C(c3ccc(C#N)cc3)N(C3CCCC3)C=C2C1=O (configuration not stated) | -1 |
| CC(=O)C1=C(C)N(Cc2ccccc2)C(=O)N[C@H]1c1ccco1 | -1 |
| CC#CCN1c2ccccc2[C@]23C[C@@H](C(=O)OC)N(C(=O)c4ccco4)C2=NC(C(=O)OC)=C(C(=O)OC)[C@H]13 | -1 |
| CCN(CC)CCCN1C=C2C(=O)C(C)(OC(=O)CCc3ccccc3)C(=O)C=C2C=C1c1ccc(C#N)cc1 (configuration not stated) | -1 |
| COC(=O)[C@@H]1[C@@H](C)N(CCc2cc(OC)c(OC)c(OC)c2)C(=O)N[C@H]1c1ccccc1 | -1 |
| COC(=O)C1=C(C(=O)OC)[C@@H]2N(Cc3ccccc3)c3ccccc3[C@@]23C[C@@H](C(=O)OC)N(C(=O)COCc2ccccc2)C3=N1 | -1 |
| CCCCC1=CC2=CC(=O)C(C)(OC(=O)CC)C(=O)C2=CN1c1ccccc1 (configuration not stated) | -1 |
| CCN1C(=O)N(C)[C@@H](c2ccccc2)C(C(=O)OC)=C1C | -1 |
| COC(=O)CC1c2ccccc2C=C(/C=C/c2ccc3c(c2)OCO3)N1C(=O)OC (configuration not stated) | -1 |
| COC(=O)[C@]1(C)C=C[C@@H](C)[C@H](c2ccccc2Br)N1C(=O)C(F)(F)F | -1 |
| CCN1C(=O)[C@@H]2[C@H]3[C@H](O)[C@H](O)CC(=NO[C@@H](C)c4cc(-c5c(C)cc(C)cc5C)no4)[C@@H]3CC[C@H]2C1=O | -1 |
| COC(=O)[C@@]1(C=C2c3ccc(F)cc3[C@@H](OC)[C@@H]2C)[C@@H]2CC=C[C@@H]21 | -1 |
| COC(=O)C1=C(C(=O)OC)[C@@H]2N(C)c3ccc(OC)cc3[C@@]23C[C@@H](C(=O)OC)N(S(=O)(=O)c2ccc4c(c2)OCCN4C)C3=N1 | -1 |
| COC(=O)CCCC1=CC2=C(c3ccccc3)C(=O)C(C)(OC(=O)C3CCCC3)C(=O)C2=CN1CC(C)C (configuration not stated) | -1 |
| COC(=O)C1=C(C(=O)OC)[C@@H]2N(C)c3ccc(OC)cc3[C@@]23C[C@@H](C(=O)OC)N(S(=O)(=O)c2cccs2)C3=N1 | -1 |
